# Test system: microorganisms
# METHOD_DESCRIPTION: Peptide activities: targeting/binding, antimicrobial, growth or phenotype altering (Tables 7, 8)
# Format: cell-based
# STUDY_CONDITIONS: peptides having multiple activities

SUBSTANCE	Activities
PF-129: peptide having multiple activities (chain 1 MKLLARDPWVCAWNDIW; chain 2 MKLLARDPWVCAWNDIW; Peptide with targeting and/or antimicrobial activity)	G B
PF-548: peptide having multiple activities (ARPIADLIHFNSTTVTASGDVYYGPG; Peptide with targeting and/or antimicrobial activity)	G B
PF-617: peptide having multiple activities (chain 1 PMNAAEPE; chain 2 PMNAAEPE; Peptide with targeting and/or antimicrobial activity)	G B
PF-601: peptide having multiple activities (chain 1 YRVTVKALE; chain 2 YRVTVKALE; Peptide with targeting and/or antimicrobial activity)	G B
MKRRRCNWCGKLFYLEEKSKEAYCCKECRKKAKKVKK [PF-307]	G B M
PF-057: peptide having multiple activities (TMIVISIPRFEEYMKARHKKWM; Peptide with targeting and/or antimicrobial activity)	G B
PF-613: peptide having multiple activities (chain 1 ADEFAKL; chain 2 ADEFAKL; Peptide with targeting and/or antimicrobial activity)	G B
PF-022: peptide having multiple activities (MINELKNKNSGIMNNYVVTKESKL; Peptide with targeting and/or antimicrobial activity)	G B
PF-434: peptide having multiple activities (chain 1 GQLLADKRPARDYNRK; chain 2 GQLLADKRPARDYNRK; Peptide with targeting and/or antimicrobial activity)	G B
PF-776: peptide having multiple activities (VSILLYLSATIILPNVLRLLVARAIIVRV; Peptide with targeting and/or antimicrobial activity)	G B
PF-394: peptide having multiple activities (chain 1 VLKEECYQKN; chain 2 VLKEECYQKN; Peptide with targeting and/or antimicrobial activity)	G B
PF-058: peptide having multiple activities (FADQSQDNA; Peptide with targeting and/or antimicrobial activity)	G B
LMFFSENMDKRDTLSGKFRYFAGSKVIKLMNWLSENGK [PF-226]	G B
PF-598: peptide having multiple activities (chain 1 MKFMLEVRNKAISAYKEITRTQI; chain 2 MKFMLEVRNKAISAYKEITRTQI; Peptide with targeting and/or antimicrobial activity)	G B
PF-C291: peptide having multiple activities (chain 1 HPFLTGTGCPLFLIFRLFFVKAYFSFTVF; chain 2 HPFLTGTGCPLFLIFRLFFVKAYFSFTVF; Peptide with targeting and/or antimicrobial activity)	G B
PF-764: peptide having multiple activities (GYFEPGKRD; Peptide with targeting and/or antimicrobial activity)	G B
PF-557: peptide having multiple activities (AANKAREQAAAEAKRKAEEQAR; Peptide with targeting and/or antimicrobial activity)	G B
PF-370: peptide having multiple activities (chain 1 VIFLHKESGNLKEIFY; chain 2 VIFLHKESGNLKEIFY; Peptide with targeting and/or antimicrobial activity)	G B
MIRIRSPTKKKLNRNSISDWKSNTSGRFFY [PF-283]	G B M
PF-479: peptide having multiple activities (AYILKRREEKNK; Peptide with targeting and/or antimicrobial activity)	G B
PF-069: peptide having multiple activities (chain 1 FDPVPLKKDKSASKHSHKHNH; chain 2 FDPVPLKKDKSASKHSHKHNH; Peptide with targeting and/or antimicrobial activity)	G B

---

# Test system: microorganisms
# METHOD_DESCRIPTION: Morphology, biofilm and growth disrupting peptides (Table 5)
# Type: cell-based
# Set-up: key: A: Peptide aggregates; B: Less hyphal formation; Clumps; Diffuse clumps and small polyps; F: Diffuse growth; H: Thin; I: Growth inhibition; Microcolony formation; Rippled; Small polyps; Thick; W: Halo formation on top, microlonies on bottom
# STUDY_CONDITIONS: MRSA
MEASURE: Organism, effect: MRSA

SUBSTANCE	MEASURE	MEASURED_RESULT
PF-011: peptide having multiple activities (MFCYYKQHKGDNFSIEEVKNIIADNEMKVN; Peptide with targeting and/or antimicrobial activity)	Organism, effect: MRSA	MRSA (R)
PF-021: peptide having multiple activities (FSLNFSKQKYVTVN; Peptide with targeting and/or antimicrobial activity)	Organism, effect: MRSA	MRSA (R)
PF-004: peptide having multiple activities (ARLSKAIIIAVIVVYHLDVRGLF; Peptide with targeting and/or antimicrobial activity)	Organism, effect: MRSA	MRSA (R)
PF-046: peptide having multiple activities (LDFYLTKHLTLML; Peptide with targeting and/or antimicrobial activity)	Organism, effect: MRSA	MRSA (R)
PF-395: peptide having multiple activities (chain 1 YCVPLGNMGNMNNKIW; chain 2 YCVPLGNMGNMNNKIW; Peptide with targeting and/or antimicrobial activity)	Organism, effect: MRSA	MRSA (C)
PF-379: peptide having multiple activities (chain 1 VFVVLFIIYLASKLLTKLFPIKK; chain 2 VFVVLFIIYLASKLLTKLFPIKK; Peptide with targeting and/or antimicrobial activity)	Organism, effect: MRSA	MRSA (C)
PF-396: peptide having multiple activities (chain 1 LIYTILASLGVLTVLQAILGREPKAVKA; chain 2 LIYTILASLGVLTVLQAILGREPKAVKA; Peptide with targeting and/or antimicrobial activity)	Organism, effect: MRSA	MRSA (C)

---

# System: microorganisms
# METHOD_DESCRIPTION: Morphology, biofilm and growth disrupting peptides (Table 5)
# Type: cell-based
# Set-up: key: A: Peptide aggregates; B: Less hyphal formation; Clumps; Diffuse clumps and small polyps; F: Diffuse growth; H: Thin; I: Growth inhibition; Microcolony formation; Rippled; Small polyps; Thick; W: Halo formation on top, microlonies on bottom
# STUDY_CONDITIONS: S. pneumoniae
Ends that are not written are not given here.
MEASURE: Organism, effect

SUBSTANCE	MEASURED_RESULT
PF-458: peptide having multiple activities (ISLIIFIMLFVVALFKCITNYKHQS; Peptide with targeting and/or antimicrobial activity)	S. pneumoniae (M)
PF-618 (KLNTLNKKDNPSLNDQDKNAVLNLLALAK; Peptide with targeting and/or antimicrobial activity)	S. pneumoniae (I)
VMQSLYVKPPLILVTKLAQQN [PF-511]	S. pneumoniae (H)
PF-450: peptide having multiple activities (HRNLIILQRTIFI; Peptide with targeting and/or antimicrobial activity)	S. pneumoniae (C)
PF-614: peptide having multiple activities (chain 1 GLDIYA; chain 2 GLDIYA; Peptide with targeting and/or antimicrobial activity)	S. pneumoniae (R)
PF-685 (PTLWLACL; Peptide with targeting and/or antimicrobial activity)	S. pneumoniae (M)
PF-756: peptide having multiple activities (DALLRLA; Peptide with targeting and/or antimicrobial activity)	S. pneumoniae (A)
PF-623: peptide having multiple activities (chain 1 VLFAVYLGALDWLFSWLTQKM; chain 2 VLFAVYLGALDWLFSWLTQKM; Peptide with targeting and/or antimicrobial activity)	S. pneumoniae (D)
PF-609: peptide having multiple activities (chain 1 TEIKLDNNEYLVLNLDDILGILK; chain 2 TEIKLDNNEYLVLNLDDILGILK; Peptide with targeting and/or antimicrobial activity)	S. pneumoniae (R)
PF-654 (chain 1 LSGRLAGRR; chain 2 LSGRLAGRR; Peptide with targeting and/or antimicrobial activity)	S. pneumoniae (A)
PF-548: peptide having multiple activities (ARPIADLIHFNSTTVTASGDVYYGPG; Peptide with targeting and/or antimicrobial activity)	S. pneumoniae (D)
PF-657 (chain 1 YVANYTITQFGRDFDDRLAVAIHFA; chain 2 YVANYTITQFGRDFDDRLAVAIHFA; Peptide with targeting and/or antimicrobial activity)	S. pneumoniae (H)
PF-619: peptide having multiple activities (chain 1 WSRVPGHSDTGWKVWHRW; chain 2 WSRVPGHSDTGWKVWHRW; Peptide with targeting and/or antimicrobial activity)	S. pneumoniae (C)
PF-695 (ALSVMLGNIPLVVPNANQL; Peptide with targeting and/or antimicrobial activity)	S. pneumoniae (C)
LSEMERRRLRKRA-NH2 [PF-529]	S. pneumoniae (H)
PF-625: peptide having multiple activities (chain 1 SDSTNNARTRKKARDVTTKDIDK; chain 2 SDSTNNARTRKKARDVTTKDIDK; Peptide with targeting and/or antimicrobial activity)	S. pneumoniae (H)
PF-704 (APAARAAL; Peptide with targeting and/or antimicrobial activity)	S. pneumoniae (C)
DLLKSLLGQDGAKNDEIIEFIKIIMEK [PF-591]	S. pneumoniae (R)
PF-605: peptide having multiple activities (chain 1 HYRWNTQWWKY; chain 2 HYRWNTQWWKY; Peptide with targeting and/or antimicrobial activity)	S. pneumoniae (D)
PF-617: peptide having multiple activities (chain 1 PMNAAEPE; chain 2 PMNAAEPE; Peptide with targeting and/or antimicrobial activity)	S. pneumoniae (I)
PF-610: peptide having multiple activities (chain 1 VFLKLKTSKIDLASIIFYP; chain 2 VFLKLKTSKIDLASIIFYP; Peptide with targeting and/or antimicrobial activity)	S. pneumoniae (D)
PF-760: peptide having multiple activities (DHITLDDYEIHDGFNFELYYG; Peptide with targeting and/or antimicrobial activity)	S. pneumoniae (C)
